Numbers sourced from ChEMBL document CHEMBL1156875.

method.summary: Cytotoxicity against MDCK cells after 72 hrs
Format: cell-based, Canis lupus familiaris
condition.summary: dog
Listing of recorded CC50 at 72 h by entry.
measurement.type: CC50 at 72 h

> print(dat)
                              line.notation  measurement.type  value.measured
1  O=C(c1ccccc1)c1oc2ccc3c(-c4ccccc4)cc(=O)oc3c2c1-c1ccccc1      CC50 at 72 h         > 25 µM
2  Cc1cc(=O)oc2c1ccc1oc(C(=O)c3ccccc3)c(-c3cccc(Cl)c3)c12      CC50 at 72 h         > 25 µM
3  CCOc1cccc(C(=O)c2oc3ccc4c(C)cc(=O)oc4c3c2-c2ccccc2)c1      CC50 at 72 h         > 25 µM

====

method.summary: Cytotoxicity against MDCK cells after 72 hrs
Assay type: cell-based, Canis lupus familiaris
condition.summary: dog
measurement.type: CC50 at 72 h

> print(dat)
                                    molecule  measurement.type  value.measured
 1  Cc1cc(=O)oc2c1ccc1oc(C(=O)c3cccc(OCCN(C)C)c3)c(-c3ccccc3)c12      CC50 at 72 h         17.7 µM
 2  Cc1cc(=O)oc2c1ccc1oc(C(=O)c3cccc(Cl)c3)c(-c3ccccc3)c12      CC50 at 72 h         > 25 µM
 3  Cc1cc(=O)oc2c1ccc1oc(Cc3ccccc3)c(-c3ccccc3)c12      CC50 at 72 h         > 25 µM
 4  Cc1cc(=O)oc2c1ccc1oc(C(O)c3ccccc3)c(-c3ccccc3)c12 (stereo not given)      CC50 at 72 h         > 25 µM
 5  Cc1cc(=O)oc2c1ccc1oc(C(=O)c3cccs3)c(-c3cccc(Br)c3)c12      CC50 at 72 h         > 25 µM
 6       O=C(c1ccccc1)c1oc2ccccc2c1-c1ccccc1      CC50 at 72 h         5.27 µM
 7  Cc1cc(=O)oc2c1ccc1oc(C(=O)c3ccsc3)c(-c3ccccc3)c12      CC50 at 72 h         > 25 µM
 8  Cc1cc(=O)oc2c1ccc1oc(C(=O)c3ccco3)c(-c3ccccc3)c12      CC50 at 72 h         > 25 µM
 9  COc1cccc(C(=O)c2oc3ccc4c(C)cc(=O)oc4c3c2-c2cccc(Br)c2)c1      CC50 at 72 h         > 25 µM
10  Cc1cc(=O)oc2c1ccc1oc(C(=O)c3ccccc3)c(-c3ccc(Cl)cc3)c12      CC50 at 72 h         > 25 µM

====

method.summary: Cytotoxicity against MDCK cells after 72 hrs
Format: cell-based, Canis lupus familiaris
condition.summary: dog
measurement.type: CC50 at 72 h

> print(dat)
                               line.notation  value.measured
 1  CCCCCCc1c(C(=O)c2ccccc2)oc2ccc3c(C)cc(=O)oc3c12         > 25 µM
 2  Cc1cc(=O)oc2c1ccc1oc(C(=O)c3ccccc3)c(-c3ccc4ccccc4c3)c12         > 25 µM
 3  COc1ccccc1C(=O)c1oc2ccc3c(C)cc(=O)oc3c2c1-c1ccccc1         > 25 µM
 4  Cc1cc(=O)oc2c1ccc1oc(C(=O)c3cccc([N+](=O)[O-])c3)c(-c3ccccc3)c12         > 25 µM
 5       Cc1cc(=O)oc2c1ccc1occ(-c3ccccc3)c12         > 25 µM
 6  Cc1cc(=O)oc2c1ccc1oc(C(=O)c3ccccc3)c(-c3ccc(Br)cc3)c12         > 25 µM
 7  Cc1cc2oc(C(=O)c3ccccc3)c(-c3ccccc3)c2c2oc(=O)ccc12         > 25 µM
 8  Cc1cc(=O)oc2c1ccc1oc(C(=O)c3ccccc3)c(-c3ccccc3)c12         > 25 µM
 9  Cc1ccc(C(=O)c2oc3ccc4c(C)cc(=O)oc4c3c2-c2ccccc2)cc1         > 25 µM
10  Cc1c(C)c2ccc3oc(C(=O)c4ccccc4)c(-c4ccccc4)c3c2oc1=O         > 25 µM
